Tested on: U2OS
Measurement notes: Here: values are normalized to the negative (DMSO; defined as 0% autophagy induction) and positive (250nM Torin1; mTOR inhibitor; defined as maximal inducer of autophagy = 100%) control compounds and represented as % of autophagy induction. […] The impact of autophagy induction on cells is complex and depends on the affected target. As such, the magnitude of a phenotype may not be equally mirrored in the %-value of autophagy induction and vice versa. The dynamics of the induction may indicate the mode of activation: e.g. activation via phosphorylation or a signaling cascade may occur fast, while activation via transcription factors may take considerably longer. […] Of note, treatment concentrations may be sub-optimal for specific compounds, leading to false negative annotations.
Type: functional, Homo sapiens
Measurement parameters: Compound Concentration 2 uM, Timepoint 36 hours, Culturing Media DMEM, 1 % Penicillin/Streptomycin, 10% Fetal bovin serum Add-On: No, Screening Media Control DMEM, Screening Media Samples DMEM
Reported property: autophagy induction (%)
Answers are plain numbers, in %.

Here are 5 molecules together with their reported answers.
{"columns": ["Molecule", "autophagy induction (%)"],
 "data": [
  ["Cc1nc(C(=O)N2CCC[C@H]2Cc2nnc(-c3ccccc3)o2)c(-c2ccccc2F)s1", 3.424],
  ["Cc1nc(C#Cc2ccnc(Cl)c2)c(C)n1-c1ccc(OC(F)(F)F)cc1", -0.6644],
  ["O=C(Cc1ccccc1)Nc1nc2ccc(Cl)cc2c2nc(-c3ccco3)nn12", -4.263],
  ["CCCNS(=O)(=O)Nc1ncnc(OCCOc2ncc(Br)cn2)c1-c1ccc(Br)cc1", 7.396],
  ["Cl.Clc1ccc(CCCOCCCN2CCCCC2)cc1 [PITOLISANT HYDROCHLORIDE]", -3.922]
]}

Hi, could you look up autophagy induction for each item in my list?
1. O=C1O[C@]2(CC[C@H](C(=O)Nc3ccn(-c4ccccc4F)n3)CC2)c2cnccc21
2. Cc1c(F)cccc1NC(=O)Nc1ccc(Cl)c(S(=O)(=O)[C@H]2CCCNC2)c1O
3. COc1ccc(S(=O)(=O)c2cc(OC)ccc2S(=O)(=O)c2ccc([C@H](C)NS(C)(=O)=O)cc2)cc1

[6.623, -10.8283, 2.146]

According to the records, this molecule Cl.Clc1cccc(COc2cncc(N3CCNCC3)n2)c1 displays autophagy induction of -1.494
